System: NCI/ADR-RES ovarian
Assay: NCI-60 one-dose screen, 48 h
Details: 10 µM unless noted
Procedure: Growth inhibition of the NCI/ADR-RES human […] tumor cell line is measured as a screen for anti-cancer activity. Cells are grown in 96 well plates and exposed to the test compound for 48 hours. Compounds are tested at a single concentration, which is 10^-5 M for most compounds. The reported endpoint is percent growth (GI% or GIPRCNT), where numbers from 0 - 100% represent growth inhibition, and numbers from -100% - 0 represent cell death. For example, a value of 40 represents 60% growth inhibition. […]
Compounds without any hit were thinned out: in the full panel of roughly 83,000, 20% have a hit. Active and inactive are the calls of the source. How the source made its calls: active means growth percent below 10; inactive means the rest.
Please answer using one outcome listed in yes (1) (active), no (0) (inactive)

COc1cccc(OCC(O)CN2CCN(c3ccccc3)CC2)c1 (stereo not drawn) | no (0)

Which result was noted for this molecule in the test: C#CC[C@@H]1C[C@]2(C)[C@H]3CC[C@@H]4[C@H]5C(C(=C)C)CC[C@]5(C(=O)NCCCCCCCCN)CC[C@@]4(C)[C@]3(C)CC[C@H]2C(C)(C)[C@H]1OC(C)=O (stereo partly drawn)
no (0)

Which result was noted for this molecule in the test: COc1cccc(Cn2c(-c3nonc3NC(C)=O)nc3ccccc32)c1
no (0)
